Measured yeast fitness by item
B1: tRNA (parent)
chain: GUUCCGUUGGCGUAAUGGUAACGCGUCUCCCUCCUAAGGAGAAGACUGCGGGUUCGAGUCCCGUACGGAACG

# Variants of: B1
# test-details: yeast fitness relative to wild type (ratio to wild type); higher = fitter; tRNA-Arg(CCU), competitive growth, 37 C, YPD
Fewer inactive variants are shown than the library holds.

{"columns": ["mutation-annotation", "measurement-qualifier", "yeast fitness"],
 "data": [
  ["C11U C33U G48A", "=", 0.58],
  ["C5G C11G A42G G68A", "≤", 0.5],
  ["U8G A14U A15U A20C C60U A69C", "≤", 0.5],
  ["G9C U28C C30G C49G", "≤", 0.5],
  ["A45C C49U G63A", "=", 0.74],
  ["G44C U54C C66U", "=", 0.601],
  ["A15G G23C A43G", "=", 0.54],
  ["U32C U64A", "=", 0.789],
  ["C30A C62U G63A", "≤", 0.5],
  ["G10C C11A C49G C55A", "≤", 0.5],
  ["U2A C66G", "=", 0.715],
  ["C4G A40U A45U", "=", 0.546],
  ["U28A G44A G68A", "=", 0.544],
  ["C11U A40U C46U", "=", 0.637],
  ["G41C C49A A69U", "=", 0.544],
  ["A14U U28A G41C A42U G52A A70C", "≤", 0.5],
  ["G17C C27U G67C", "≤", 0.5],
  ["G9A A14G G23A G41C G51C", "≤", 0.5],
  ["G9C C29U C30A C46G", "≤", 0.5],
  ["C24A C31G C60U", "≤", 0.5],
  ["C4G G44A A45C G63A", "≤", 0.5],
  ["A14U C55A A65C", "≤", 0.5],
  ["U28C U59G", "=", 0.852],
  ["C4U C11A G67U", "≤", 0.5],
  ["A15G A21C G39C A45G U53C", "≤", 0.5],
  ["C11G C31A G39A G48A A57G A65G", "≤", 0.5],
  ["G12C G50U", "=", 0.836],
  ["U7A A36U U64C", "≤", 0.5],
  ["G51A C60U G68A", "≤", 0.5],
  ["G39A C60U C62A", "=", 0.505],
  ["C30U C66U A69U", "=", 0.602],
  ["C31U G52C C60A", "=", 0.632],
  ["C33U C34A A43C G48A", "≤", 0.5],
  ["C22G C33A A36C A43U C55G", "≤", 0.5],
  ["U35A C61G", "≤", 0.5],
  ["C5G U53C C55A A57G", "≤", 0.5],
  ["C22U C24G C55U", "≤", 0.5],
  ["G48A C66A G68U A70C", "≤", 0.5],
  ["C4U G39C U59G C62A", "≤", 0.5],
  ["G12C C24G A40G", "≤", 0.5],
  ["C27A U28C A37C", "≤", 0.5],
  ["U3C A20G U59C A69C", "=", 0.79],
  ["A57U G58A A65U", "=", 0.621],
  ["U8A A14U A42G", "≤", 0.5],
  ["A40C A43C", "=", 1.04],
  ["A20U A21U C33G U35G G50U G68A", "=", 0.637]
]}
